I'd appreciate it if you could supply GI50 values for the items below.
Test system: HT29 colon
Test: NCI tumour cell line growth inhibition, 48 h
Where a SMILES comes first, the peptide text is derived from it. [ ]: non-standard residue; d: D form. 2Nal = N[CH](Cc1ccc2ccccc2c1)C(=O)O

- Molecule: "C[C@]12CC[C@@H]3c4ccc(O)cc4CC[C@H]3[C@@H]1CC[C@@H]2NS(=O)(=O)c1cccc(Br)c1"
  Study system: "HT29 colon"
  GI50: "3.76 µM"
- Molecule: "C[C@]12CC[C@H]3[C@@H](C[C@@H]4SC(Nc5cccc(F)c5)=N[C@@]45CC(=O)CC[C@]35C)[C@@H]1CCC2=O"
  Study system: "HT29 colon"
  GI50: "1.49 µM"
- Molecule: "CS(=O)(=O)c1ccc(C(F)(F)F)cc1NC(=O)Nc1cnc(Oc2ccc(-c3cc(Cl)cnc3N)cc2)nc1"
  Study system: "HT29 colon"
  GI50: "2.24 µM"
- Molecule: "COc1ccc2[nH]cc(/C=C3\\C(=O)Nc4ccccc43)c2c1"
  Study system: "HT29 colon"
  GI50: "3.6 µM"
- Molecule: "COC(=O)c1c2c(c(C)[n+]([O-])c1C)C(=O)C(NCc1ccc(F)c(Cl)c1)=CC2=O"
  Study system: "HT29 colon"
  GI50: "1.35 µM"
- Molecule: "COc1cc2cc(C(=O)O)[nH]c2cc1OCc1ccccc1"
  Study system: "HT29 colon"
  GI50: "> 100 µM"

Record GI50 for all entries; do not skip any.
1. O=C(Oc1ccc([N+](=O)[O-])cc1)N1CCC(C(O)(c2ccc3c(c2)OCO3)c2ccc3c(c2)OCO3)CC1
2. O=C(Nc1ccc(-n2cc(-c3ccncc3)c(-c3ccc(Cl)c(O)c3)n2)cc1)c1cc(Cl)cc(Cl)c1
3. O=[N+]([O-])c1ccc2nc(N/N=C/c3ccc(O)cc3)sc2c1
4. C=CC(=O)Nc1cc2c(Nc3ccc(OCc4ccccn4)c(Cl)c3)ncnc2cc1OCCN1CCOCC1
5. CCN(C)S(=O)(=O)Nc1cccc(Nc2ncnc3cc(NC(=O)CCl)ccc23)c1Cl

> 100 µM
2.68 µM
8.31 µM
4.04 µM
1.33 µM

List GI50 for every entry below, keeping the order given.
1. O=C1c2cccc3c(N4CCN(c5ccc6c7c(cccc57)C(=O)N(CCN5CCNCC5)C6=O)CC4)ccc(c23)C(=O)N1CCN1CCNCC1
2. CCOC(=O)c1c(C)c2c(n1C)CSc1cc(S(=O)(=O)c3ccccc3)c(=O)[nH]c1-2
3. NC1=C(c2nc(-c3cc4ccccc4oc3=O)cs2)C(c2ccco2)c2c(c3ccccc3oc2=O)O1 (stereo not given)
4. CC(NC(=O)C(N)Cc1ccccc1)C(=O)NC(Cc1ccc(O)cc1)C(=O)NC(Cc1c[nH]c2ccccc12)C(=O)NC(CCCCN)C(=O)NC(C(=O)NC(C)C(=O)NC(Cc1ccc2ccccc2c1)C(N)=O)C(C)C (stereo not given) (H-FAYWKVA[2Nal]-NH2; configuration not given here)

["3.91 µM", "16.3 µM", "> 150 µg/mL", "37.1 µM"]

====

Test system: 786-0 renal
Test: NCI tumour cell line growth inhibition, 48 h
For each entry below, report its TGI value.

Answered cases to consult:
- Molecule: "Cc1cccc(NC(=O)CC2C(=O)Nc3ccccc3S2(=O)=O)c1C (stereo not given)"
  Study system: "786-0 renal"
  Test value: "76.1 µM"
- Molecule: "CN/N=C(\\C)CC(=O)Nc1cccc(Cl)c1C"
  Study system: "786-0 renal"
  Test value: "> 100 µM"
- Molecule: "C[n+]1c2ccccc2c(NC(CCC(N)=O)C(=O)O)c2ccccc21 (stereo not given)"
  Study system: "786-0 renal"
  Test value: "> 100 µM"
- Molecule: "CCC(=S)N(C)O"
  Study system: "786-0 renal"
  Test value: "> 81.1 µM"
- Molecule: "N#Cc1cccc(Nc2nccc(-c3cnn4ncccc34)n2)c1"
  Study system: "786-0 renal"
  Test value: "> 25 µM"
- Molecule: "Cc1ccc(C(=O)/C=C/c2ccccc2Cl)cc1"
  Study system: "786-0 renal"
  Test value: "29.7 µM"

List reported TGI for each of these molecules:
1. COC(=O)C(C(=O)C(=O)Nc1ccccc1OC)c1csc(-n2nc(-c3ccccc3)cc2-c2ccccc2)n1 (stereo not given)
2. CC1CC(=O)C(C(O)CC2CC(=O)N(c3ccccc3)C(=O)C2)C(C)C1 (stereo not given)
3. CCC(C)(C)NC1=C(NC(C)=O)C(=O)c2ccccc2C1=O
4. O=C1OC(c2ccc([N+](=O)[O-])cc2)=N/C1=C\c1ccc(O)cc1
5. O=C1c2cccc3c(N4CCN(c5ccc6c7c(cccc57)C(=O)N(CCN5CCNCC5)C6=O)CC4)ccc(c23)C(=O)N1CCN1CCNCC1
6. CC1CC2C3CC(F)C4=CC(=O)C=CC4(C)C3(F)C(O)CC2(C)C1(O)C(=O)CO (stereo not given)
7. COc1ccc(/C=N/NC(=O)O)cc1

1: > 100 µM; 2: > 100 µM; 3: > 75 µM; 4: > 100 µM; 5: 4.32 µM; 6: > 100 µM; 7: > 100 µM

Look at each molecule and report its TGI.
1. O=C1/C(=C\c2ccccc2)c2ccccc2N1Cc1ccccc1
2. CC(C)(C)OC(=O)C1/C(=C/CO)CN1C(=O)OC(C)(C)C (stereo not given)

1: 23 µM; 2: > 100 µM
